Target: T1, GIP Receptor (Homo sapiens, UniProt P48546)
T1 construct: host or cells: HEK293T
T1 sequence (P48546 22-466): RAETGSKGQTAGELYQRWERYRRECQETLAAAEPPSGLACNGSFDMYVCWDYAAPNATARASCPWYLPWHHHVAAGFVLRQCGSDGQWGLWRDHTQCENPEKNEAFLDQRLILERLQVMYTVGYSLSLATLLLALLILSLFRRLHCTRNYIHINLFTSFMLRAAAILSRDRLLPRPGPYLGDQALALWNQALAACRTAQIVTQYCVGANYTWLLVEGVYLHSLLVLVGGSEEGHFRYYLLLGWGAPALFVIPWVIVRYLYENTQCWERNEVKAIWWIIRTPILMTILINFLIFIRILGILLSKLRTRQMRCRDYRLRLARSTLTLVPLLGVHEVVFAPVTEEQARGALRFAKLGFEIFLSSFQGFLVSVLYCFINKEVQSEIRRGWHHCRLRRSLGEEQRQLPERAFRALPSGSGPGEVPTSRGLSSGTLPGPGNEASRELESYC
Assay: GIP receptor-mediated bioluminescence in HEK293T cells with chimeric promiscuous G protein (FIG. 5, Table II)
Type: cell-based
Settings: signal induced by maximal GIP (1 μM) as percentage of signal induced by Triton X-100 with 1 mM Ca^2+
MEASURED_ENDPOINT: % GPCR/total (%)
# value in %; strip the unit string

Would you kindly share the measured % GPCR/total for Mt-clytin K168Y: Mitochondrial K168Y modified Clytin, SEQ ID NO:28 (protein) MSVLTPLLLRGLTGSARRLPVPRAKIHSLPPEGKLRPNFDNPKWVNRHKFMFNFLDINGDGKITLDEIVSKASDDICAKLGATPEQTKRHQDAVEAFFKKIGMDYGKEVEFPAFVDGWKELANYDLKLWSQNKKSLIRDWGEAVFDIFDKDGSGSISLDEWKAYGRISGICSSDEDAEKTFKHCDLDNSGYLDVDEMTRQHLGFWYTLDPNADGLYGNFVP ?
18.5
